FYI, the data here is from PubChem BioAssay (Tox21).

- assay_overview: qHTS assay to identify small molecule antagonists of the estrogen receptor alpha (ER-alpha) signaling pathway using the BG1 cell line (AID 743080);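 further: BG1 cells stimulated with 17beta-estradiol alongside compound; nearly all actives have a fitted effect of over 25% in size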
- condition_set: BG1Luc4E2 ERE-luciferase antagonist mode, luminescence; series mostly up to 70.3 µM
Inconclusive results are not listed. Calls of active or inactive are those of the source. The call rests on the fitted dose curve.
Pick one: active, inactive

Can you look up the reported call for CN1C(=O)OC(C)(C)C1=O for me?
inactive

Please give the result for CCOc1ccc(Cc2nccc3cc(OCC)c(OCC)cc23)cc1OCC too.
active

Please give the result for CCOc1ccccc1O[C@H](c1ccccc1)[C@H]1CNCCO1 too.
inactive

Please give the result for O=C1c2ccccc2C(=O)N1CCc1noc(-c2ccc(CN3CCCCCC3)s2)n1 too.
active

Please give the result for COc1ccccc1Oc1c(NS(=O)(=O)c2ccc(C(C)(C)C)cc2)nc(-c2ncccn2)nc1OCCO too.
inactive

***
Can you look up the reported call for N#CCCN(CCO)CCO for me?
inactive

Please give the result for C/C=C\C/C=C/CCCCCCCCOC(C)=O too.
inactive

###

- assay_overview: qHTS assay to identify small molecule agonists of the endoplasmic reticulum stress response signaling pathway (AID 1159516); further: on the % scale 0 is the no-effect control and ±100 the full control effect
- condition_set: ESRE-bla HeLa, ER stress beta-lactamase reporter, 5 h; series mostly up to 61 µM
Records with an inconclusive call do not appear. Calls of active or inactive are those of the source. Calls follow the shape of the dose curve; as a rule, active = well fitted activation curve with a large enough effect in the signal ratio in the repeat runs (not every such curve was filed as active); inconclusive = weak or mixed curves, or effect the other way; inactive = flat fitted curve, though single readings scatter; the % refers to the signal ratio.
measured_metric: outcome

Look over these answered cases.
Entry OC1(c2ccccc2)CCNCC1 has what outcome?
inactive

Please give the result for CCCC(=O)C(=O)O too.
inactive

Please give the result for CCC(=O)C1CC(C(C)C)CC=C1C (centres undefined) too.
inactive

Please give the result for N#[N+]c1ccc2c(S(=O)(=O)[O-])cccc2c1O too.
inactive

***
Entry CCOC(=O)[C@H](CCc1ccccc1)N[C@@H](C)C(=O)N(CC(=O)O)C1Cc2ccccc2C1 has what outcome?
inactive

Please give the result for CCC(C)COC(C)=O (centres undefined) too.
inactive

Please give the result for C=C(C)C(=O)OCCCCCCCCCCCCC too.
inactive

Please give the result for CCC1CO1 (centres undefined) too.
inactive

Please give the result for CN1CC(=O)N2[C@H](c3ccc4c(c3)OCO4)c3[nH]c4ccccc4c3C[C@@H]2C1=O too.
inactive

Please give the result for NCCNCCO too.
inactive

Please give the result for COc1ncnc(NS(=O)(=O)c2ccc(N)cc2)c1OC too.
inactive

Please give the result for Cc1cc(O)ccc1O too.
inactive

Please give the result for CCC(=O)OC too.
inactive

Please give the result for O=c1c(O)c(-c2ccc(O)cc2)oc2cc(O)cc(O)c12 too.
inactive

###

- target: Bile acid receptor (Homo sapiens) (UniProt Q96RI1)
- Sequence (Q96RI1 whole entry, looked up): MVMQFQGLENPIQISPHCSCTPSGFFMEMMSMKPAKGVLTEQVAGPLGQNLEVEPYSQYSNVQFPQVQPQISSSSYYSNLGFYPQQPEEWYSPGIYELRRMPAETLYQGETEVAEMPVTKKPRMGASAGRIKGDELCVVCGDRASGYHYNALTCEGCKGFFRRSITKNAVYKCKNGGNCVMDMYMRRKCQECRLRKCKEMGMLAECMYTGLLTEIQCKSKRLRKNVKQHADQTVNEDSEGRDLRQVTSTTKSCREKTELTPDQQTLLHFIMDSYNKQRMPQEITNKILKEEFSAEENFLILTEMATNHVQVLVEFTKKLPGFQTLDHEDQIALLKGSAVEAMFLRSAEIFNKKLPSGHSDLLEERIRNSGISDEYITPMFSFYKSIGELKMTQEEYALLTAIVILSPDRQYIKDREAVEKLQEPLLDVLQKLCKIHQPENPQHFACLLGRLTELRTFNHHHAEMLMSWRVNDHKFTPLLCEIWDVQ
- assay_overview: qHTS assay to identify small molecule agonists of the farnesoid-X-receptor (FXR) signaling pathway (AID 743220); on activation: on the % scale 0 is the no-effect control and ±100 the full control effect
- condition_set: HEK293T FXR-UAS-bla, beta-lactamase FRET ratio, 16 h; series mostly up to 62.6 µM
Inconclusive results are not listed. The source made the active and inactive calls. The call rests on the fitted dose curve; in most records, active means well fitted activation curve with a large enough effect in the signal ratio in the repeat runs (not every such curve was filed as active); inconclusive means weak or mixed curves, or effect the other way; inactive means flat fitted curve, though single readings scatter; the % refers to the signal ratio.
Pick one: 1 (yes) for active, 0 (no) for inactive

Can you look up the reported call for CC(=O)NC1(c2cccc(F)c2)CCN(CC[C@@]2(c3ccc(Cl)c(Cl)c3)CN(c3ccccc3)C(=O)CO2)CC1 for me?
0 (no)

***
Can you look up the reported call for COC(=O)c1nc(Cl)c(Cl)nc1N for me?
1 (yes)

Please give the result for CCCCCCCC/C=C\CCCCCCCCCCCC(=O)O too.
0 (no)

Please give the result for O=C(CCc1ccc(O)cc1)c1c(O)cc(O)cc1O too.
0 (no)

Please give the result for COc1ccccc1N1CCN(CCCCNC(=O)c2ccc(-c3ccc(C(C)=O)cc3)cc2)CC1 too.
0 (no)

Please give the result for FC(F)(F)c1ccccc1Cl too.
0 (no)

Please give the result for CC(CC1c2ccccc2CCc2ccccc21)CN(C)C (configuration not stated) too.
0 (no)

Please give the result for CN(C(=O)CN(CCO)CC(=O)N(C)C(C)(C)Cc1ccccc1)C(C)(C)Cc1ccccc1 too.
0 (no)

Please give the result for O=[N+]([O-])c1cc(C2CCCCC2)c(O)c([N+](=O)[O-])c1 too.
0 (no)

Please give the result for Cc1ccc(CO)cc1 too.
0 (no)

Please give the result for CCCCOc1ccc(OCCCN2CCOCC2)cc1 too.
0 (no)

Please give the result for CCN(CC)CCNC(=O)COc1ccc(OC)cc1 too.
0 (no)

Please give the result for C[C@@H](O[C@H]1OCCN(Cc2n[nH]c(=O)[nH]2)[C@H]1c1ccc(F)cc1)c1cc(C(F)(F)F)cc(C(F)(F)F)c1 too.
0 (no)

Please give the result for O=C(O)c1ccc(OCCCOc2ccc(C(=O)O)cc2)cc1 too.
0 (no)

###

- assay_overview: A CellTox Green Cytotoxicity Assay to monitor cytotoxicity in HepG2 cells - 0 hour (AID 1224882); further: on the % scale 0 is the no-effect control and ±100 the full control effect; nearly all actives have a fitted effect of over 35% in size
- condition_set: CellTox Green fluorescence; series mostly up to 76.8 µM
Calls of active or inactive are those of the source. Calls come from the whole dose curve; as a rule, active = well fitted activation curve with a large enough effect in the repeat runs; inconclusive = weak or mixed curves; inactive = flat fitted curve, though single readings scatter.
measured_metric: outcome

Look over these answered cases.
Entry C=C(C)CCCC(C)CCO (stereo unspecified) has what outcome?
inactive

Please give the result for C[C@H]1c2cccc(O)c2C(O)=C2C(=O)[C@]3(O)C(O)=C(C(N)=O)C(=O)[C@@H](N(C)C)[C@@H]3[C@@H](O)[C@@H]21 too.
inactive

Please give the result for COc1ccc(OC(=O)N(CC(=O)O)Cc2ccc(OCCc3nc(-c4ccccc4)oc3C)cc2)cc1 too.
inactive

Please give the result for NC1[C@H]2CN(c3nc4c(cc3F)c(=O)c(C(=O)O)cn4-c3ccc(F)cc3F)C[C@@H]12 (stereo partly specified) too.
inactive

Please give the result for C[C@@H](O)[C@H]1C(=O)N2C(C(=O)O)=C([C@H]3CCCO3)S[C@H]12 too.
inactive

***
Entry CC1=C(CC=O)C(C)(C)CCC1 has what outcome?
inactive

Please give the result for CC1(C)[C@H](C(=O)O)N2C(=O)C[C@H]2S1(=O)=O too.
inactive

Please give the result for O=C1Cc2ccccc2N1c1c(Cl)cccc1Cl too.
inactive

Please give the result for COc1cc(C(=O)NC2CCN(C)CC2)ccc1Nc1ncc2c(n1)N(C1CCCC1)CC(F)(F)C(=O)N2C too.
inactive

Please give the result for CCC1NC(=O)c2cc(S(N)(=O)=O)c(Cl)cc2N1 (stereo unspecified) too.
inactive

Please give the result for O=C1c2ccccc2C(=O)C1(O)O too.
inactive

###

- assay_overview: qHTS assay to identify small molecule agonists of the estrogen receptor alpha (ER-alpha) signaling pathway in the presence of an antagonist - cell viability counter screen (AID 1259386);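 further: cells exposed to compounds for 22 h at 37 °C before the viability read; on the % scale 0 is the no-effect control and ±100 the full control effect; nearly all actives have a fitted effect of over 30% in size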
- condition_set: VM7Luc4E2 viability, CellTiter-Fluor fluorescence, 22 h; series mostly up to 92.4 µM
Inconclusive results are not listed. Calls of active or inactive are those of the source. Calls follow the shape of the dose curve; as a rule, active = well fitted cell-killing curve with a large enough effect in the repeat runs; inconclusive = weak or mixed curves, or effect the other way; inactive = no such curve, though single readings can be large or run the other way.
measured_metric: outcome

Look over these answered cases.
Entry COc1cc(N)c(Cl)cc1C(=O)NC1CCN(CCCOc2ccc(F)cc2)CC1OC (configuration not stated) has what outcome?
inactive

Please give the result for C1C[C@@H]2[C@H]3CC[C@H](C3)[C@@H]2C1 too.
inactive

Please give the result for Brc1cc(Br)c(Oc2cc(Br)c(Br)cc2Br)cc1Br too.
inactive

Please give the result for CCOC(=O)C1=C(C)NC(C)=C(C(=O)OC)C1c1cccc(Cl)c1Cl (configuration not stated) too.
inactive

***
Entry CCC(=O)C1CC(C(C)C)CC=C1C (configuration not stated) has what outcome?
inactive

Please give the result for CC(C)=CCC1C(=O)N(c2ccccc2)N(c2ccccc2)C1=O too.
inactive

###

- assay_overview: qHTS RealTime-Glo MT Cell Viability Assay in HEK293 cells - 0 hour (AID 1224880); further: top concentration of the series differs between compounds; on the % scale 0 is the no-effect control and ±100 the full control effect; nearly all actives have a fitted effect of over 45% in size
- condition_set: RealTime-Glo luminescence; series mostly up to 76.8 µM
Results filed as inconclusive are left out. The source made the active and inactive calls. Calls follow the shape of the dose curve; as a rule, active = well fitted cell-killing curve with a large enough effect in the repeat runs; inconclusive = weak or mixed curves, or effect the other way; inactive = flat fitted curve, though single readings scatter.
measured_metric: outcome

Entry C[C@@H](O[C@H]1OCCN(Cc2n[nH]c(=O)[nH]2)[C@H]1c1ccc(F)cc1)c1cc(C(F)(F)F)cc(C(F)(F)F)c1 has what outcome?
inactive

Please give the result for Cc1ccc(Cl)c(Nc2ccccc2C(=O)O)c1Cl too.
inactive

Please give the result for CNC(=O)c1cnn(-c2nc(N)c3ncn([C@@H]4O[C@H](CO)[C@@H](O)[C@H]4O)c3n2)c1 too.
inactive

Please give the result for CC1(C)[C@H](C(=O)O)N2C(=O)C[C@H]2S1(=O)=O too.
inactive

***
Entry N#CCc1ccc(Cl)cc1Cl has what outcome?
inactive

Please give the result for CS(=O)(=O)c1ccc(-c2cn3ccccc3n2)cc1 too.
inactive

Please give the result for CCC=CC#N too.
inactive

Please give the result for N#[N+]c1ccc2c(S(=O)(=O)[O-])cccc2c1O too.
inactive

Please give the result for C=C1c2cccc(O)c2C(O)=C2C(=O)[C@]3(O)C(O)=C(C(N)=O)C(=O)[C@@H](N(C)C)[C@@H]3[C@@H](O)[C@H]12 too.
inactive

Please give the result for CCC(C)(C)OC too.
inactive

Please give the result for O=C1c2ccccc2C(=O)c2c(O)c(O)cc(O)c21 too.
inactive
